assay.target: human HmGluR3 (Homo sapiens)
Construct: expressed in transfected cells; host or cells: RGT (RGT-18) cells, i.e. AV12 cells stably expressing the rat glutamate transporter GLAST
Sequence (Q14832 23-879): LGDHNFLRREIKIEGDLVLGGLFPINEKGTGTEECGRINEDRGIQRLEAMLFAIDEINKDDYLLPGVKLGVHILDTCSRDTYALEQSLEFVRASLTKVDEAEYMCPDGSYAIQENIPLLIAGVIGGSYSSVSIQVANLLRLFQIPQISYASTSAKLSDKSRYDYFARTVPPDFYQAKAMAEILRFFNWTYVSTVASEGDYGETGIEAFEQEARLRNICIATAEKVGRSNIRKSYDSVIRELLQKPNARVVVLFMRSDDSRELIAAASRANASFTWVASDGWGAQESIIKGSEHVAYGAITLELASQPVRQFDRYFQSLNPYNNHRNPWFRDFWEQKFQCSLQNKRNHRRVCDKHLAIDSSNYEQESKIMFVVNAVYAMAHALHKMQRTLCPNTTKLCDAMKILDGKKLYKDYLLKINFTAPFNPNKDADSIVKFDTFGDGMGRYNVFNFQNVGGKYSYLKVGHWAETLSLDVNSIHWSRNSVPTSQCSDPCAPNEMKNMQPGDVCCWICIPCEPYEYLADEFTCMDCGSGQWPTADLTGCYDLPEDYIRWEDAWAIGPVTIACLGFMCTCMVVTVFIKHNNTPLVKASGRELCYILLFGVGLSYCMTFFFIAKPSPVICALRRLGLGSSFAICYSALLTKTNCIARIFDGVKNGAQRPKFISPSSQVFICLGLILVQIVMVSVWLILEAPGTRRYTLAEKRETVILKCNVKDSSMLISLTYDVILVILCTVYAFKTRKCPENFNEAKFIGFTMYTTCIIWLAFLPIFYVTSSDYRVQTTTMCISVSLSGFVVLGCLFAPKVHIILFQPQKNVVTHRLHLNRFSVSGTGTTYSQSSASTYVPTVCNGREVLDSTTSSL
assay.text: Inhibition of forskolin-stimulated cAMP synthesis (adenylate cyclase activity) in RGT cells stably transfected with pGTh-HmGluR3
Assay type: cell-based
Experimental: In an especially preferred embodiment of this invention an assay measuring the inhibition of forskolin-stimulated cAMP synthesis was performed. The inhibition of cAMP synthesis is known to positively correlated with the addition of glutamate to cells containing certain types of metabotropic receptors. Adenylate cyclase activity was determined in initial experiments in transfected mammalian cells, using standard techniques. […]
recorded.metric: EC50 (µM)
Answer with a number only, understood to be in µM.

Prompt: Can you share its EC50? I mean this compound: NC1(C(=O)O)CCC(C(=O)O)C1 (centres unmarked)
Response: 2.23

Prompt: Can you share its EC50? I mean this compound: N[C@@H](CCC(=O)O)C(=O)O [L-Glutamate, 1-aminopropane-1,3-dicarboxylic acid]
Response: 5.38
